- Tested on: Human Jurkat-E6-1 cells
- ASSAY: Measurement of IL-2 secretion of Jurkat cells by ELISA
- Format: cell-based
- CONDITION LABEL: Homo sapiens, Jurkat E6.1; test compound 3.0 μM; anti-CD3/anti-CD28 stimulation 24 hours; read-out: Percentage of the amount of IL-2 secreted from compound treated/DMSO-treated cells
Structures can show the parent of a compound that is named as a salt.
METRIC: activity at 3 µM (%)
Please reply with the bare figure in % and do not write the unit itself.

# input compound: Cc1cccc(F)c1-n1nc2c(-c3ccc(N4CC5CCC(C4)N5C)nc3)n[nH]c2cc1=O [Compound 109] ; wanted: its activity at 3 µM
491

Now this one: COc1cc(C#N)cc(F)c1-n1nc2c(-c3ccc(N4CCN(CCO)CC4)cc3)n[nH]c2cc1=O [Compound 114]
309

Now this one: Cc1cccc(F)c1-n1nc2c(-c3cccc(N4CCN(C)CC4)c3)n[nH]c2cc1=O [Compound 198]
280

Now this one: Cc1cccc(F)c1-n1nc2c(-c3ccc(N4CCC(N5CCOCC5)CC4)cc3)n[nH]c2cc1=O [Compound 142]
708

Now this one: COc1cccc(F)c1-n1nc2c(-c3ccc(N4CCC(N5CCOCC5)CC4)cc3)n[nH]c2cc1=O [Compound 144]
716

Now this one: Cc1cccc(F)c1-n1nc2c(-c3ccc4c(c3)CN(C3CC(N)C3)CC4)n[nH]c2cc1=O (stereo not drawn) [Compound 163]
117

Now this one: COc1cccc(F)c1-n1nc2c(-c3cnn(C)c3)n[nH]c2cc1=O [Compound 21]
258

Now this one: COc1cccc(F)c1-n1nc2c(-c3ccc(N4CCC(C)(OC)CC4)cc3)n[nH]c2cc1=O [Compound 141]
390

Now this one: COc1cccc(F)c1-n1nc2c(-c3ccc(N4CCN(C)C(C(C)(C)O)C4)cc3)n[nH]c2cc1=O (stereo not drawn) [Compound 126]
428

Now this one: Cc1cccc(F)c1-n1nc2c(-c3ccc(N4CCn5ccnc5C4)cc3)n[nH]c2cc1=O [Compound 137]
291

Now this one: Cc1cc(C#N)cc(F)c1-n1nc2c(-c3ccc(N4CCN(C)CC4)nc3)n[nH]c2cc1=O [Compound 99]
237

Now this one: CN1CCN(c2ccc(-c3n[nH]c4cc(=O)n(-c5c(O)cccc5F)nc34)cn2)CC1 [Compound 100, hydrobromide]
284

Now this one: Cc1cccc(F)c1-n1nc2c(-c3ccc(N4C[C@@H]5C[C@H]4CN5C)cc3)n[nH]c2cc1=O [Compound 87]
584

Now this one: CNC(=O)c1cc(F)c(-n2nc3c(-c4ccc(N5CCN(C)CC5)cc4)n[nH]c3cc2=O)c(OC)c1 [Compound 79]
361

Now this one: Cc1cccc(F)c1-n1nc2c(-c3ccc(N4CCN(C)C(C(C)(C)O)C4)cc3)n[nH]c2cc1=O (stereo not drawn) [Compound 125]
216

Now this one: Cc1cccc(F)c1-n1nc2c(-c3ccc(N4CCN(C)C(C)(C)C4)cc3)n[nH]c2cc1=O [Compound 89]
689

Now this one: Cc1cccc(F)c1-n1nc2c(-c3ccc(N4CCN5C(=O)OCC5C4)nc3)n[nH]c2cc1=O (stereo not drawn) [Compound 129]
807

Now this one: COc1cccc(F)c1-n1nc2c(-c3ccc(N4CCN5CCOC[C@@H]5C4)cc3)n[nH]c2cc1=O [Compound 135]
964

Now this one: Cc1cccc(F)c1-n1nc2c(-c3ccc(N4CCN(C)CC4)c(F)c3)n[nH]c2cc1=O [Compound 94]
414

Now this one: Cc1cccc(F)c1-n1nc2c(-c3ccc(N4CCN(C)CC4CO)cc3)n[nH]c2cc1=O (stereo not drawn) [Compound 130]
454

Now this one: COc1cccc(F)c1-n1nc2c(-c3ccc(N4CCC(C)(O)CC4)cc3)n[nH]c2cc1=O [Compound 140]
436

Now this one: CCc1cccc(F)c1-n1nc2c(-c3ccc4c(c3)CN(C)CC4)n[nH]c2cc1=O [Compound 160]
354

Now this one: COc1cccc(F)c1-n1nc2c(-c3ccc(N4CCN(C)C(CO)C4)cc3)n[nH]c2cc1=O (stereo not drawn) [Compound 121]
459

Now this one: COc1cccc(F)c1-n1nc2c(-c3ccc(N4CCC(N5CCN(C)CC5)CC4)cc3)n[nH]c2cc1=O [Compound 145]
776

Now this one: COc1cc(C#N)cc(F)c1-n1nc2c(-c3ccc(N4CCN5C(=O)OCC5C4)cc3)n[nH]c2cc1=O (stereo not drawn) [Compound 124]
570

Now this one: COc1cccc(F)c1-n1nc2c(-c3ccc(N4CCN(CC(C)(C)O)CC4)cc3)n[nH]c2cc1=O [Compound 115]
542

Now this one: COc1cccc(F)c1-n1nc2c(-c3ccc(N4CCN(CCO)CC4)cc3)n[nH]c2cc1=O [Compound 113]
368

Now this one: Cc1cccc(F)c1-n1nc2c(-c3ccc(N4CCC(N5CCN(C)CC5)CC4)cc3)n[nH]c2cc1=O [Compound 143]
786

Now this one: COc1cccc(F)c1-n1nc2c(-c3ccc(N4CCN(C)C(C(C)(C)OC)C4)cc3)n[nH]c2cc1=O (stereo not drawn) [Compound 127]
758

Now this one: Cc1cc(Cl)cc(F)c1-n1nc2c(-c3ccc(N4CCN(C)CC4)nc3)n[nH]c2cc1=O [Compound 108]
312
